- assay_target: Nuclear receptor ROR-gamma (Homo sapiens)
- Sequence (P51449 whole entry): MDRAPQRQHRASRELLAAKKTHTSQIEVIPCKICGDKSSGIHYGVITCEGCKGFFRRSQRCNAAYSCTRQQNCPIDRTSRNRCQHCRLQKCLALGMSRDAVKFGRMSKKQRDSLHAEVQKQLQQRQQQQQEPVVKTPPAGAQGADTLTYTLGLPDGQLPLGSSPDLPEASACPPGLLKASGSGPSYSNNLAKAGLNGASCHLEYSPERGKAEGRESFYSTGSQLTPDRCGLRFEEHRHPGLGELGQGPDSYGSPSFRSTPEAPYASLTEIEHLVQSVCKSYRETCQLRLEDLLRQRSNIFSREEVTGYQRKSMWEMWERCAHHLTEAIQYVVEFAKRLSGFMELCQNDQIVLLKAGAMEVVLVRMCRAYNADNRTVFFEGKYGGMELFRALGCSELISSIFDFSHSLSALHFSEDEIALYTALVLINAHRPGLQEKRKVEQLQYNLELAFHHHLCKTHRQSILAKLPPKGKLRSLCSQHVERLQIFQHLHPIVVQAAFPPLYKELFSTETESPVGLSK
- assay: Binding Assay: Compounds of the present invention were tested for ability to bind to RORγ in a cell-free competition assay with commercially available radio-ligand (RL), 25-hydroxy [26,27-3H]— cholesterol (PerkinElmer, Cat. # NET674250UC), for a ligand binding site on a recombinant RORγ Ligand Binding Domain (LBD) protein expressed as a 6×His-Glutathione-S-Transferase (GST) fusion (“6×His” disclosed as SEQ ID NO: 2). The assay was performed in 96-well SPA plates (PerkinElmer, Cat. #1450-401) in 50 mM HEPES buffer, pH 7.4, containing 150 mM NaCl, 5 mM MgCl2, 10% (v/v) glycerol, 2 mM CHAPS, 0.5 mM β-octylglucopyranoside and 5 mM DTT. Tested compounds were dissolved in DMSO, and semi-log (3.162×) serial dilutions of the compounds were prepared in the same solvent. Two μL of the DMSO solutions were mixed with 28 μL of 8.6 nM 25-hydroxy [26,27-3H]— cholesterol and 50 μL of 24 nM RORγ LBD. The plate was shaken at 700 rpm for 20 min and incubated for 10 min at rt, after which 40 μL of poly-Lys YSi SPA beads (PerkinElmer, Cat. # RPNQ0010) were added to achieve 50 μg of the beads per well. The plate was incubated on an orbital shaker for 20 min and then for 10 min without agitation at rt. SPA signal for tritium beta radiation was registered on PerkinElmer Microbeta plate reader. Percent inhibition values were calculated based on the high signal obtained with DMSO control and the low signal observed with 10 μM standard RORγ inverse agonist T0901317 (SigmaAldrich, Cat. # T2320). The percent inhibition vs. concentration data were fit into a four-parameter model, and […] values were calculated from the fit as the concentrations corresponding to the inflection points on the dose-response curves.
observed_property: Ki

Value of measured Ki for the entry CC(C)[C@H]1c2nc(NS(=O)(=O)c3cccc(C(F)(F)F)c3)sc2CN1Cc1ccc(Cl)cc1 : > 1 µM
